Data origin: PubChem BioAssay (NCI)

# Test system: M14 melanoma
# protocol-description: NCI tumour cell line growth inhibition, 48 h
Measured TGI, listed per entry for reference.

COc1ccc(/C=C(\Cl)c2ccc(OC)cc2)cc1 : > 100 µM
COC1C(O)C(C)OC(O[C@@H]2C[C@H]3CC[C@@H]4[C@H](CC[C@]5(C)[C@@H](C6=CC(=O)OC6)CC[C@]45O)[C@@]3(C)[C@H](O)C2)C1O (stereo partly drawn) : 0.252 µM

What does the data say about its TGI? Entry: `C=CC[C@H]1[C@H](O[Si](C)(C)C(C)(C)C)C=CC(=O)[C@@H]1CC(=O)OCC`
25.3 µM

Lookup Cc1ccc(-n2cc(-c3ccc(Cl)cc3)c3c2N=CN2NC(c4cccs4)=NC32)cc1 (stereo not drawn)
> 100 µM

Input CC(=O)O[C@H]1CC[C@@]2(C)C(=C/C(=N\[N+](=O)[O-])[C@H]3C4CCC([C@H](C)CCCC(C)C)[C@@]4(C)CCC32)C1 (stereo partly drawn)
> 100 µM
